System: Abutilon theophrasti
experiment notes: Pre-emergence herbicidal activity, glasshouse pot test; note: key: 5=total damage to plant; 0=no damage to plant
Format: in vivo
run conditions: pre-emergence spray, rate 1000 g/ha, evaluated after 13 days, scale 0-5
property label: ABUTH damage score, application pre-emergence
I'd appreciate a reply containing only the number, no unit.

So what's the measured ABUTH damage score, application pre-emergence for this one? COC1=C(C)C(O)N(c2ccc([N+](=O)[O-])cn2)C1=O (centres unmarked)
0

Record: CCN(CC)C(=O)c1cnc(N2C(=O)C(Cl)=C(C)C2O)cc1C(F)(F)F (centres unmarked)
0

Record: COC1=C(C)C(O)N(c2cc(C(F)(F)F)c(-c3cnc(OC)nc3)cn2)C1=O (centres unmarked)
1

Record: COC1=C(C)C(O)N(c2cc(C)c(C#N)nn2)C1=O (centres unmarked)
0

Record: CCN(CC)C(=O)c1cnc(N2C(=O)C(OC)=C(C)C2O)cc1C(F)(F)F (centres unmarked)
5

Record: COC1=C(C)C(O)N(c2cc(C(F)(F)F)c(C(=O)NC(C)(C)C)cn2)C1=O (centres unmarked)
5

Record: CC1=C(Cl)C(=O)N(c2cc(C)c([N+](=O)[O-])cn2)C1O (centres unmarked)
0

Record: COC1=C(C)C(O)N(c2cc(C)c(-c3cnn(C)c3)nn2)C1=O (centres unmarked)
0

Record: COC1=C(C)C(O)N(c2ccc(C(=O)NC(C)(C)C#N)cn2)C1=O (centres unmarked)
4

Record: CC1=C(Cl)C(=O)N(c2cc(C(F)(F)F)c(-c3nn(C)c4ccccc34)cn2)C1O (centres unmarked)
0

Record: COC1=C(C)C(O)N(c2cc(C)c(OC)nn2)C1=O (centres unmarked)
2

Record: COc1ccc(N2C(=O)C(Cl)=C(C)C2O)nn1 (centres unmarked)
5

Record: CC#Cc1nnc(N2C(=O)C(OC)=C(C)C2O)cc1C(C)(F)F (centres unmarked)
4

Record: CC1=C(Cl)C(=O)N(c2cc(C(F)(F)F)ncn2)C1O (centres unmarked)
5

Record: CC1=C(Cl)C(=O)N(c2cc(C(C)C)c(Cl)nn2)C1O (centres unmarked) [BF15]
4

Record: CC1=C(Br)C(=O)N(c2cc(C(F)(F)F)ncn2)C1O (centres unmarked)
4

Record: CC1=C(Cl)C(=O)N(c2cc(N(C)C)ncn2)C1O (centres unmarked)
0

Record: CC1=C(Cl)C(=O)N(c2cc(C#N)ncn2)C1O (centres unmarked)
0

Record: CC(C)=C(C)c1cnc(N2C(=O)C(Cl)=C(C)C2O)cc1C(F)(F)F (centres unmarked)
1

Record: COC1=C(C)C(O)N(c2cc(C(F)(F)F)c(-c3cncnc3)cn2)C1=O (centres unmarked)
2

Record: CC1=C(Cl)C(=O)N(c2cc(C(C)(C)C)c(Cl)nn2)C1O (centres unmarked)
4

Record: CC1=C(Cl)C(=O)N(c2ccc(C#N)cn2)C1O (centres unmarked)
0

Record: COC1=C(OC)C(O)N(c2cc(F)ccn2)C1=O (centres unmarked)
5

Record: CC1=C(Cl)C(=O)N(c2cc(OC(C)C)ncn2)C1O (centres unmarked)
4

Record: CC1=C(Cl)C(=O)N(c2cc(C(F)(F)F)c(C(=O)NC(C)(C)C)cn2)C1O (centres unmarked)
5

Record: COC1=C(C)C(O)N(c2cc(C(C)(F)F)c(C)nn2)C1=O (centres unmarked)
5

Record: CC1=C(Cl)C(=O)N(c2cc(C(F)(F)F)cc[n+]2[O-])C1O (centres unmarked)
0

Record: CC1=C(Cl)C(=O)N(c2cc(C3CC3)ncn2)C1O (centres unmarked)
5

Record: CC1=C(Cl)C(=O)N(c2cc(C3(C#N)CC3)ncn2)C1O (centres unmarked)
2

Record: CC1=C(Cl)C(=O)N(c2cc(C(F)(F)F)c(C(F)(F)F)cn2)C1O (centres unmarked)
0

Record: CC1=C(Cl)C(=O)N(c2nccc(C(C)(C)C)n2)C1O (centres unmarked)
5

Record: COC1=C(C)C(O)N(c2cc(C(C)F)c(Cl)nn2)C1=O (centres unmarked)
5

Record: C=C(OCC)c1nnc(N2C(=O)C(OC)=C(C)C2O)cc1C(C)(C)F (centres unmarked)
5

Record: CC1=C(Cl)C(=O)N(c2cc3c(cn2)CCCC3)C1O (centres unmarked)
1

Record: CC1=C(Cl)C(=O)N(c2ccc(C(F)(F)F)nn2)C1O (centres unmarked)
4

Record: COC1=C(C)C(O)N(c2nccc(C(C)(C)C)n2)C1=O (centres unmarked)
5

Record: COC1=C(OC)C(O)N(c2ccc(C(F)(F)F)nn2)C1=O (centres unmarked)
0

Record: CC1=C(Cl)C(=O)N(c2cc(C(F)(F)F)c(-c3ccc(Cl)cc3)cn2)C1O (centres unmarked) [AF90]
0

Record: CC1=C(Cl)C(=O)N(c2cc(C(F)(F)F)c(-c3cccc(C#N)c3)cn2)C1O (centres unmarked)
0

Record: COc1ccc(-c2ccc(N3C(=O)C(Cl)=C(C)C3O)nc2)cc1 (centres unmarked)
2

Record: CCC1=C(Cl)C(=O)N(c2cc(C(C)(C)C#N)ncn2)C1O (centres unmarked)
5
